Values compiled from patent US20240425486A1.

# System name: DCAF15/RBM39 (Homo sapiens (Human), UniProt Q14498+Q66K64)
# Sequence (Q66K64 whole entry, species assumed): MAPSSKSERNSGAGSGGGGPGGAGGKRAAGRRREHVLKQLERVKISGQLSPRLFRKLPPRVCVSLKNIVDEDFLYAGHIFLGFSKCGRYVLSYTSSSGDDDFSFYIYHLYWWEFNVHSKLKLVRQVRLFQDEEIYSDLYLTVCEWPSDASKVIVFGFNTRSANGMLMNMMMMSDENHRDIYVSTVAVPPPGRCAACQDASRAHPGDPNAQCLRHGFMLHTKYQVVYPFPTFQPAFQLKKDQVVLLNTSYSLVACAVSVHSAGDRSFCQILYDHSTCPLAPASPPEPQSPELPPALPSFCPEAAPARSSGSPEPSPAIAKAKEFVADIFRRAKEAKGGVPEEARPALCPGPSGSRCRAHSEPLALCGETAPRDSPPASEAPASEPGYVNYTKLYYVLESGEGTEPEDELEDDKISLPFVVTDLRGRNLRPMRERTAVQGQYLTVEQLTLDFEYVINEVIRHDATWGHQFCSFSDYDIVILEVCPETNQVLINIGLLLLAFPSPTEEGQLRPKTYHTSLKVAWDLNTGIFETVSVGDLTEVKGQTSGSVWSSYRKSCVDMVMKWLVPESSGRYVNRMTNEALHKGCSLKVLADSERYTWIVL
# Sequence (Q14498 whole entry, species assumed): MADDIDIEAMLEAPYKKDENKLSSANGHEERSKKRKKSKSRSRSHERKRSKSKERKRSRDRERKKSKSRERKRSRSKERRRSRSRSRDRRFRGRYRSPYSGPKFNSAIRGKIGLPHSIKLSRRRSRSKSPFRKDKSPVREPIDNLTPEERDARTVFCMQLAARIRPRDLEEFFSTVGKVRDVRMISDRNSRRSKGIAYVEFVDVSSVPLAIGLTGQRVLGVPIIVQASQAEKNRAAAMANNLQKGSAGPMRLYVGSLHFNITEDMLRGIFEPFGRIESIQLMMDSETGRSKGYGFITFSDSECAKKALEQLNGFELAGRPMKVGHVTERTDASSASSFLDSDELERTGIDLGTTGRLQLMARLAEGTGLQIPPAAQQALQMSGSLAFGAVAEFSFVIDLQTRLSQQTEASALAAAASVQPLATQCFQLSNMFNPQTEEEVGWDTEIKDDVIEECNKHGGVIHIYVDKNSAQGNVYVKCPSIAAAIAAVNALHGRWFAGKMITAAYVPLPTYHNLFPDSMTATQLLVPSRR
# Sequence (Q16531 whole entry partner, species assumed): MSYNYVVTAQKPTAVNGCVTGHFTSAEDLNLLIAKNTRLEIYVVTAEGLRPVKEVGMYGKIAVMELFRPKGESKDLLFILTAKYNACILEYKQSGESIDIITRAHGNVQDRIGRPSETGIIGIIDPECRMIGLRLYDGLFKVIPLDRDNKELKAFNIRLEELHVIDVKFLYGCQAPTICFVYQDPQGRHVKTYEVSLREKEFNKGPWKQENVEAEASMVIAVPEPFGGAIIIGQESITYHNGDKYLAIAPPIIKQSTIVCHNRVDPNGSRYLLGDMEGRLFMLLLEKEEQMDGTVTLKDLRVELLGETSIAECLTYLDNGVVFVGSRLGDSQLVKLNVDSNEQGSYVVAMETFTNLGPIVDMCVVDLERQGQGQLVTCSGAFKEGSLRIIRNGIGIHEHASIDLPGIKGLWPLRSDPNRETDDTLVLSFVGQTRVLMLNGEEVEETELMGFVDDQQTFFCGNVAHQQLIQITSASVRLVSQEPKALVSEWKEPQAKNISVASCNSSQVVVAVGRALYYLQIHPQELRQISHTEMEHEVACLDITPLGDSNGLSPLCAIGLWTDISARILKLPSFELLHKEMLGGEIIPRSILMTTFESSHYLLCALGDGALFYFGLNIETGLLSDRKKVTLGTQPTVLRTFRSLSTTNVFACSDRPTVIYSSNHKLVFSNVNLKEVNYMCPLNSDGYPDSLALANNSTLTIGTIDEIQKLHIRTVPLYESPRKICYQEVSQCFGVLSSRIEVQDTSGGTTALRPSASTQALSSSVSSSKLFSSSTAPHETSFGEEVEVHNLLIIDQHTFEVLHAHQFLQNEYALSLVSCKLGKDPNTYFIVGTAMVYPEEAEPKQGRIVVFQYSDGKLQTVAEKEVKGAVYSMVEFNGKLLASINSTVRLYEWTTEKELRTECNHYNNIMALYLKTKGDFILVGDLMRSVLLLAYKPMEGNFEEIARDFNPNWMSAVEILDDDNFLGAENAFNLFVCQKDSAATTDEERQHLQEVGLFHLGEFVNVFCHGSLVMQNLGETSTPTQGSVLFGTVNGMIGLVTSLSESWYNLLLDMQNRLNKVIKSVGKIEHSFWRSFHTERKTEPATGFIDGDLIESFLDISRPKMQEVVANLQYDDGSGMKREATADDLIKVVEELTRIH
# Procedure details: AlphaLISA compound-induced DCAF15-RBM39 ternary complex formation
# Run conditions: His-tagged DCAF15 complex and biotin-carrying RBM39
Parameter EC50: see the listing below.

>  <Molecule>
CC(C)(C)OC(=O)N1CCCc2cc(S(=O)(=O)Nc3ccc(Cl)c4c(Cl)c[nH]c34)ccc2C1 [Compound 46]

>  <EC50>
1000 to 10000 nM

$$$$
>  <Molecule>
O=C(N1CCc2ccc(S(=O)(=O)Nc3ccc(Cl)c4c(Cl)c[nH]c34)cc2C1)C(F)(F)F [Compound 33]

>  <EC50>
≤ 1000 nM

$$$$
>  <Molecule>
O=C1NCCOc2ccc(S(=O)(=O)Nc3ccc(Cl)c4c(Cl)c[nH]c34)cc21 [Compound 48]

>  <EC50>
≤ 1000 nM

$$$$
>  <Molecule>
O=C1CCOc2ccc(S(=O)(=O)Nc3ccc(Cl)c4c(Cl)c[nH]c34)cc21 [Compound 30]

>  <EC50>
1000 to 10000 nM

$$$$
>  <Molecule>
O=C1CCSc2ccc(S(=O)(=O)Nc3ccc(Cl)c4c(Cl)c[nH]c34)cc2N1 [Compound 49]

>  <EC50>
≤ 1000 nM

$$$$

Ask | What value of EC50 has been recorded for this entry: CN1C(=O)c2ccc(S(=O)(=O)Nc3ccc(Cl)c4c(Cl)c[nH]c34)cc2C1=O [Compound 16]
Reply | 1000 to 10000 nM

Ask | Let us now turn to O=S(=O)(Nc1ccc(Cl)c2c(Cl)c[nH]c12)c1ccc2c(Cl)ccc(Cl)c2c1 [Compound 28]
Reply | 10000 to 100000 nM

Ask | Let us now turn to O=C1OCc2ccc(S(=O)(=O)Nc3ccc(Cl)c4c(Cl)c[nH]c34)cc21 [Compound 10]
Reply | ≤ 1000 nM

Ask | Let us now turn to O=C1NCc2cc(S(=O)(=O)Nc3ccc(Cl)c4c(Cl)c[nH]c34)ccc2O1 [Compound 42]
Reply | ≤ 1000 nM

Ask | Let us now turn to O=S(=O)(Nc1ccc(Cl)c2c(Cl)c[nH]c12)c1cc(Br)c2c(c1)OCCO2 [Compound 38]
Reply | 1000 to 10000 nM

Ask | Let us now turn to O=C1COc2cc(S(=O)(=O)Nc3ccc(Cl)c4c(Cl)c[nH]c34)cnc2N1 [Compound 45]
Reply | ≤ 1000 nM

Ask | Let us now turn to Cn1c(=O)n(C)c2cc(S(=O)(=O)Nc3ccc(Cl)c4c(Cl)c[nH]c34)ccc21 [Compound 19]
Reply | 1000 to 10000 nM

Ask | Let us now turn to O=S(=O)(Nc1ccc(Cl)c2c(Cl)c[nH]c12)c1ccc2c(c1)CC[C@@H](C(F)F)O2 [Compound 29]
Reply | 1000 to 10000 nM

Ask | Let us now turn to CC(=O)N[C@H]1Cc2ccc(S(=O)(=O)Nc3ccc(Cl)c4c(Cl)c[nH]c34)cc2C1 [Compound 8]
Reply | ≤ 1000 nM

Ask | Let us now turn to O=S(=O)(Nc1ccc(Cl)c2c(Cl)c[nH]c12)c1cc2cc(F)ccc2s1 [Compound 5]
Reply | 1000 to 10000 nM

Ask | Let us now turn to O=S1(=O)Cc2ccc(S(=O)(=O)Nc3ccc(Cl)c4c(Cl)c[nH]c34)cc2C1 [Compound 17]
Reply | ≤ 1000 nM

Ask | Let us now turn to O=c1ccc2cc(S(=O)(=O)Nc3ccc(Cl)c4c(Cl)c[nH]c34)ccc2[nH]1 [Compound 37]
Reply | ≤ 1000 nM

Ask | Let us now turn to O=S(=O)(Nc1ccc(Cl)c2c(Cl)c[nH]c12)c1ccc2c(c1)CCCC2 [Compound 24]
Reply | 1000 to 10000 nM

Ask | Let us now turn to O=C1CCc2ccc(S(=O)(=O)Nc3ccc(Cl)c4c(Cl)c[nH]c34)cc21 [Compound 7]
Reply | ≤ 1000 nM
